Square brackets hold non-standard residues; d marks the D form. Peptide text beside a SMILES is read from it. * marks the point of attachment. His(Trt) = N[C@@H](Cc1cn(C(c2ccccc2)(c2ccccc2)c2ccccc2)cn1)C(=O)O; His(τ-CHPh2) = N[C@@H](Cc1cn(C(c2ccccc2)c2ccccc2)cn1)C(=O)O; dPhe(4-Me) = Cc1ccc(C[C@@H](N)C(=O)O)cc1; Decanoyl = CCCCCCCCCC(=O)*; Octanoyl = CCCCCCCC(=O)*; Orn = NCCC[C@H](N)C(=O)O
Answer each item with its documented ECmax (-fold induction over basal).

Report ECmax (-fold induction over basal) on GPR39 (Homo sapiens, UniProt O43194) for this entry: CCCCCCCC(=O)NCCC[C@H](NC(=O)[C@@H](N)Cc1cn(C(c2ccccc2)c2ccccc2)cn1)C(=O)N[C@H](Cc1ccc(C)cc1)C(=O)N[C@@H](Cc1ccc(O)cc1)C(=O)O [HKFY-71] (H-[His(τ-CHPh2)][Orn](Octanoyl)[dPhe(4-Me)]Y-OH) 16.4 ± 2.51 -fold induction over basal

Report ECmax (-fold induction over basal) on GPR39 (Homo sapiens, UniProt O43194) for this entry: CCCCCCCC(=O)NCCCC[C@H](NC(=O)[C@@H](N)Cc1cn(C(c2ccccc2)c2ccccc2)cn1)C(=O)N[C@H](Cc1ccc(C)cc1)C(=O)N[C@@H](Cc1ccc(O)cc1)C(N)=O [HKFY-66] (H-[His(τ-CHPh2)]K(Octanoyl)[dPhe(4-Me)]Y-NH2) 20.2 ± 3.5 -fold induction over basal

Report ECmax (-fold induction over basal) on GPR39 (Homo sapiens, UniProt O43194) for this entry: CCCCCCCCCC(=O)NCCCC[C@H](NC(=O)[C@@H](N)Cc1cn(C(c2ccccc2)(c2ccccc2)c2ccccc2)cn1)C(=O)N[C@@H](Cc1ccccc1)C(=O)N[C@@H](Cc1ccc(O)cc1)C(=O)O [HKFY-24] (H-[His(Trt)]K(Decanoyl)FY-OH) 7.03 ± 0.57 -fold induction over basal

Report ECmax (-fold induction over basal) on GPR39 (Homo sapiens, UniProt O43194) for this entry: CCCCCCCC(=O)NCCCC[C@H](NC(=O)[C@@H](N)Cc1cn(C(c2ccccc2)(c2ccccc2)c2ccccc2)cn1)C(=O)N[C@@H](Cc1ccccc1)C(=O)N[C@@H](CO)C(=O)O [HKFY-50] (H-[His(Trt)]K(Octanoyl)FS-OH) 16.2 ± 1.5 -fold induction over basal

Report ECmax (-fold induction over basal) on GPR39 (Homo sapiens, UniProt O43194) for this entry: CCCCCCCC(=O)NCCCC[C@H](NC(=O)[C@H](N)Cc1cn(C(c2ccccc2)c2ccccc2)cn1)C(=O)N[C@H](Cc1ccc(C)cc1)C(=O)N[C@@H](Cc1ccc(O)cc1)C(=O)O [HKFY-62] 28.1 ± 2.1 -fold induction over basal

Where do these numbers come from? They come from patent US20230212222A1.
